All values here come from PubChem BioAssay AID686978.

# Test protocol: qHTS for Inhibitors of human tyrosyl-DNA phosphodiesterase 1 (TDP1): qHTS in cells in absence of CPT; note: nearly all actives have a fitted effect of over 55% in size
# Study conditions: DT40 Tdp1-/- hTDP1 cells, no CPT, ATP luminescence, 48 h
The whole screen tested about 420,000 compounds, of which about 64,000 (15%) were called active. Roughly 27% stayed inconclusive and do not appear here. Calls come from the whole dose curve; as a rule, active = well fitted inhibition curve with a large enough effect; inconclusive = small, poorly fitted or top-dose-only effect; inactive = flat fitted curve, though single readings scatter. Only a sample is shown.
Thanks in advance; please answer with one of these: active, inactive

Test call, this compound: `Cc1cc(N2CCN(C)CC2)nc2ccc(NC(=S)N3CCOCC3)cc12`
inactive

Which result was noted for this compound in the test: `C=C1CCN([C@@H](Cc2ccccc2)C(=O)N2CCOCC2)S(=O)(=O)c2ccccc21`
inactive

Each compound tested received a call. Report the one for `Cc1ccc(S(=O)(=O)N2CCN(c3ccccc3)CC2)cc1C` .
inactive

Recorded call for `CCn1c(CSc2nc(C)cc(C)n2)nnc1SCC(N)=O` ?
inactive

Which outcome did this test record for the compound `COc1cccc(CNC(=O)c2cc(=O)[nH]c3ccc(S(=O)(=O)N4CCCCC4)cc23)c1` ?
inactive

Hello, I am checking results. What call was entered for `Cc1ccc(NC(=O)CCC(=O)c2ccc(Br)cc2)cc1` ?
inactive

Record request — test call for `Cc1ccccc1Nc1nc(N)nc(CSc2nnc3ccccn23)n1`
inactive

Give the logged outcome of this assay for the following compound: CCCS(=O)(=O)NC(=O)C1(C)CCCN(C(=O)c2ccnc(Cl)c2)C1 (configuration not stated)
inactive

I would be grateful if you could indicate the recorded call for `Cc1ccc(-c2csc(C(C#N)=C(O)CN3CCN(C(=O)c4ccco4)CC3)n2)cc1` .
inactive

Record request — test call for `CSC1=NCCN1C(=O)c1ccc(S(=O)(=O)N2CCOCC2)cc1`
inactive

Tell me the recorded outcome of this test for `COc1cc(OC)cc(-c2nnc(SCC(=O)Nc3ccc(C(=O)O)cc3)s2)c1` .
inactive

I'd appreciate the recorded outcome for `O=[N+]([O-])c1ccccc1NCc1ccccc1Cl` from this test.
inactive

Can you look up the reported call for `COc1cc(NC(=O)c2ccc(CNc3c(N4CCCC4)c(=O)c3=O)cc2)cc(OC)c1OC` for me?
inactive

What did the test return for `Cc1cccc(CSc2nnc(C)c(=O)n2N)c1` ?
inactive

What outcome does the record of this test show for `Cn1nccc1NS(=O)(=O)c1ccc(F)cc1` ?
inactive

# lookup: test call for `COc1ccc(C(=O)CCC(=O)Nc2ccc(Cl)cc2)cc1`
inactive

Write down the call the test reported for this compound. Item: `Cc1cccc(N2CCN(S(=O)(=O)c3ccc4[nH]c5c(c4c3)CCCCC5)CC2)c1C`
active

Which result was noted for this compound in the test: CCOC(=O)C1(C)CCCN(C(=O)c2ccc(N(C)C)cc2)C1 (configuration not stated)
inactive

Assay result, entry `O=C(NNC(=O)C1CCC1)c1ccccc1` — outcome?
inactive

I'd appreciate the recorded outcome for COC(=O)C1(CCSC)NC(c2ccc(OC)cc2OC)C2C(=O)N(c3cccc(C(C)=O)c3)C(=O)C21 (configuration not stated) from this test.
inactive

Call for entry C=CC1C(OC2OC(CO)C(O)C(O)C2O)OC=C(C(=O)OC)C1CC1CC(=O)CC(CC(=O)CCc2ccc(O)cc2)O1 (configuration not stated) :
inactive

// param item: `CCOCCCNC(=S)Nc1ccc2nc(N3CCN(CC)CC3)cc(C)c2c1` ; yields the recorded call
inactive
